Entries annotated with measured Potency
Test system: Melanocyte-stimulating hormone receptor
Assay: In vitro potency of compound to stimulate melanosome dispersion in frog (Rana pipiens) skin relative to alpha-MSH
Assay type: functional

Cpd Smiles: CCCC[C@H](NC(C)=O)C(=O)N[C@@H](CCC(=O)O)C(=O)N[C@@H](Cc1c[nH]cn1)C(=O)N[C@H](Cc1ccccc1)C(=O)N[C@@H](CCCN=C(N)N)C(=O)N[C@@H](Cc1c[nH]c2ccccc12)C(=O)NCC(N)=O
Potency: 0.02

Cpd Smiles: CCCC[C@H](NC(C)=O)C(=O)N[C@@H](CCC(=O)O)C(=O)N[C@@H](Cc1c[nH]cn1)C(=O)N[C@@H](Cc1ccccc1)C(=O)N[C@@H](CCCN=C(N)N)C(=O)N[C@@H](Cc1c[nH]c2ccccc12)C(=O)NCC(N)=O
Potency: 0.002

Cpd Smiles: CSCC[C@H](N)C(=O)N[C@@H](CCC(=O)O)C(=O)N[C@@H](Cc1c[nH]cn1)C(=O)N[C@@H](Cc1ccccc1)C(=O)N[C@@H](CCCN=C(N)N)C(=O)N[C@@H](Cc1c[nH]c2ccccc12)C(=O)NCC(=O)O
Potency: 1e-05

Cpd Smiles: CSCC[C@H](NC(C)=O)C(=O)N[C@@H](CCC(=O)O)C(=O)N[C@@H](Cc1c[nH]cn1)C(=O)N[C@@H](Cc1ccccc1)C(=O)N[C@@H](CCCN=C(N)N)C(=O)N[C@@H](Cc1c[nH]c2ccccc12)C(=O)NCC(N)=O
Potency: 0.0003
